studySystem: PPxYc
runDescription: FP
assayReadout: Kd

Would you mind telling me what Kd value was observed for KVTQSFLPPGWEMRIAPNGRPFFIDHNTKTTTWEDPRLKFPVHMRSK (domain or fragment) [NEDD4L WW3 domain] ?
> 250 µM
